Provide the reported SH2 binding enrichment of each item.
- Assay target: Grb2 SH2 (UniProt P62993)
- Sequence (P62993 whole entry, looked up, the tested form may be a part): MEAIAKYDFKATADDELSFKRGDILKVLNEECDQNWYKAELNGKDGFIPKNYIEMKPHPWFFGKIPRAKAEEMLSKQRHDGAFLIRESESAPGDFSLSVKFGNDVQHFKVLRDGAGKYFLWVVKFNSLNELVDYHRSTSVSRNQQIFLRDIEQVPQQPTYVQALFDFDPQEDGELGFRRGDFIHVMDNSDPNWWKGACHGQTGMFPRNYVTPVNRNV
- Protocol text: SH2 binding enrichment of the phosphorylated peptide, bacterial display (enrichment ratio); higher = better substrate or ligand; peptides without Tyr show the background;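 note: peptide library displayed on the E. coli surface as eCPX fusions, selected cells deep-sequenced, score is each peptide's frequency after selection divided by its frequency in the input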
Lab note: record the figure alone, no unit after it.

Prompt line: Which value of SH2 binding enrichment has been reported for LNPFIYSLRNC [OR1A2_Y288_W293C] in the records?
Response line: 0.69

Prompt line: Can you look up the measured SH2 binding enrichment of IITDYYVDMKF [MPP4_Y567_V562I] for me?
Response line: 0.8

Prompt line: Consider the sequence LYYYSYLLKNH [PTEN_Y180_V175L] and give its measured SH2 binding enrichment.
Response line: 1.05

Prompt line: Given the sequence KVDKEYEVHVR [GHR_Y226_R229H] , what is its reported SH2 binding enrichment?
Response line: 0.804

Prompt line: Value lookup for SH2 binding enrichment; key = ESLRPYDVMDV [KCNQ2_Y562]
Response line: 0.83

Prompt line: I have this sequence here, PQEVMYAQLDH [KIR3DL2_Y398_T397M] , and I need its recorded SH2 binding enrichment.
Response line: 0.748

Prompt line: Data request, read-out SH2 binding enrichment, for AQESNYRLLRR [SLC20A2_Y377]
Response line: 0.823

Prompt line: Looking for the measured SH2 binding enrichment of KRFRIYHLATS [BRCA2_Y3009_YF] , can you help?
Response line: 1.05

Prompt line: Can you look up the measured SH2 binding enrichment of FAELMYTGFWH [ASS1_Y322_V321M] for me?
Response line: 0.918

Prompt line: Form field: reported SH2 binding enrichment of YTHSDYQYSQR [PKP2_Y166]
Response line: 0.785

Prompt line: Item NTGDYCDLYGG [PTPN11_Y63_Y63C] has what recorded SH2 binding enrichment?
Response line: 1.01

Prompt line: Could you share which SH2 binding enrichment value was measured for HGVSSYDTVIS [LDLR_Y465] ?
Response line: 0.936

Prompt line: Look at this sequence and give its reported SH2 binding enrichment. PDMHSYMVRFN [GRIN2D_Y732_YF]
Response line: 0.909

Prompt line: I have this sequence here, KFEDVYVRICL [B3GALNT1_Y269_G271R] , and I need its recorded SH2 binding enrichment.
Response line: 0.816

Prompt line: // SH2 binding enrichment lookup, key: QPGDIYHQTWA [GBA_Y244]
Response line: 0.626

Prompt line: Query (sequence): GLVFLYMEKNQ [PRELP_Y156] ; field requested: SH2 binding enrichment
Response line: 0.979

Prompt line: SH2 binding enrichment for SILTVYSKDNF [PANK2_Y400_A398T_YF] ?
Response line: 0.838

Prompt line: Fill in: SH2 binding enrichment of EFQKKYSDADI [CKAP5_Y1860_K1857Q_YF] is ___
Response line: 0.772

Prompt line: # input sequence: IRFPPYTDWNQ [ALDH3B2_Y365_H361R_YF] ; wanted: its SH2 binding enrichment
Response line: 0.886

Prompt line: Entry under review: RLTEGYTGPFK [ZNF862_Y181_I178T] . Reported SH2 binding enrichment?
Response line: 1.14

Prompt line: // SH2 binding enrichment lookup, key: NAGDFYDLFGG [PTPN11_Y63_T59A_YF]
Response line: 0.642

Prompt line: Suppose we examine the sequence RMGNLYDIDEN [GRIN2A_Y1246_D1251N] ; what SH2 binding enrichment value has been reported?
Response line: 0.805

Prompt line: Consider the sequence QAPPIYLDVLG [NTRK1_Y791_V790I] and give its measured SH2 binding enrichment.
Response line: 0.791

Prompt line: Using the record for HNLNFYKKTTN [FGFR3_Y648_D646N_YF] , report its SH2 binding enrichment.
Response line: 0.722

Prompt line: // query SH2 binding enrichment value for entry LNPDGYKKAYE [CPXM2_Y427_E428K]
Response line: 0.744

Prompt line: Tell me the measured SH2 binding enrichment of MPVDGYISGLL [PAK6_Y81] , please.
Response line: 0.903

Prompt line: Need SH2 binding enrichment, item ANNQRYAFMPL [TMEM87B_Y460]
Response line: 0.821

Prompt line: Given the entry TDHLRYFDSNK [ARAP1_Y359] , report its measured SH2 binding enrichment.
Response line: 0.968
